- method: Aqueous solubility of the compound in phosphate buffer at pH 7.4 after 4 hrs by HPLC-UV analysis
- Assay type: physicochemical
experimental endpoint: solubility at 4 h (µg/mL)
Please respond with the number in µg/mL and leave the unit unwritten.

Example results:
C=C(c1ccc(OC)c(O)c1)c1cc(OC)c(OC)c(OC)c1 11.6
C=C(c1ccc2c(c1)c1ccccc1n2C)c1cc(C)nc2ccccc12 0.42

Lab book: solubility at 4 h of C=C(c1ccc2c(ccn2C)c1)c1cc(C#N)nc2ccccc12 noted as 3.11

// field: solubility at 4 h; key: C=C(c1cc(C)nc(C)c1)c1ccc2c(ccn2C)c1 ; value = 0.54

###

- System: HUVEC
- method: cells
- particulars: Homo sapiens, 72 h
- Description: Antiproliferative activity against HUVEC after 72 hrs by MTS assay
experimental endpoint: pIC50
On this scale, pIC50 is minus log10 of a concentration expressed in M (mol/L).

C=C(c1ccc2c(c1)c1ccccc1n2C)c1cc(C)nc2ccccc12 9.09
C=C(c1ccc(OC)c(O)c1)c1cc(OC)c(OC)c(OC)c1 8.70
COc1ccc(/C=C\c2cc(OC)c(OC)c(OC)c2)cc1O 8.77

Continue with the next compound.
// pIC50 lookup, compound = C=C(c1cc(C)nc(C)c1)c1ccc2c(ccn2C)c1 , result: 9.05

###

- Test system: K562
- method: cells
- particulars: Homo sapiens, K562, 72 h
experimental endpoint: pIC50
In textbook form, pIC50 equals minus log to base ten of the concentration in mol/L.

Some molecules with known pIC50 results, for comparison:
C=C(c1cc(C)nc(C)c1)c1ccc2c(ccn2C)c1 8.74
C=C(c1ccc2c(c1)c1ccccc1n2C)c1cc(C)nc2ccccc12 8.70
COc1ccc(/C=C\c2cc(OC)c(OC)c(OC)c2)cc1O 8.30

// below: pIC50 requested for another molecule
Please fill in: pIC50 reported for C=C(c1ccc(OC)c(O)c1)c1cc(OC)c(OC)c(OC)c1 = 8.70

meta.source: ChEMBL document CHEMBL4330077
